Data provenance is patent US12371454B2.

Target: Kras and SOS1 (biotin-tagged human Kras loaded with GDP, His-tagged human SOS1) (Homo sapiens, UniProt P01116, G12D)
Construct: made in house; host or cells: E. coli (stated for Kras only)
Sequence (P01116 1-188 isoform P01116-2 G12D): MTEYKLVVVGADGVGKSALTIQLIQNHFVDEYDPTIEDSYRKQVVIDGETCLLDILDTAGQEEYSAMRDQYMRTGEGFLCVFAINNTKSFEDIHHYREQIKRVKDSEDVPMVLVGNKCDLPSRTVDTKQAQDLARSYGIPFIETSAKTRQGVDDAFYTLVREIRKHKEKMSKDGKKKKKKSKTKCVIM
Experiment: Protein-protein interaction inhibition between Kras and SOS1 (KrasGl2D-SOS PPI) using AlphaScreen
Type: binding
Settings: AlphaScreen; biotin-tagged human Kras loaded with GDP, His-tagged human SOS1; read-out: KRAS G12D-SOS PPI IC50
Positions of bridges follow the written chain, without caps; N, C: chain ends. Non-standard residues stand in square brackets, D forms with d. Residues, ends and D or L forms follow the SMILES beside them. *: point of attachment. hPhe(3-Cl-4-CF3) = N[C@@H](CCc1ccc(C(F)(F)F)c(Cl)c1)C(=O)O; NMeCha = CN[C@@H](CC1CCCCC1)C(=O)O; NMeChg = CN[C@H](C(=O)O)C1CCCCC1; NMeD = CN[C@@H](CC(=O)O)C(=O)O; NMeL = CN[C@@H](CC(C)C)C(=O)O; Ahp(2) = CCCCC[C@H](N)C(=O)O; Piperidide = C1CCN(*)CC1; Ac5c = NC1(C(=O)O)CCCC1; Sar = CNCC(=O)O
MEASURE_NAME: IC50
Report as: number unit

Asked: Fill in: IC50 of CCCCC[C@@H]1NC(=O)[C@H](CC(C)C)N(C)C(=O)C[C@@H](C(=O)N2CCCCC2)N(C)C(=O)[C@H](C2CCCCC2)N(C)C(=O)C2(CCCC2)NC(=O)[C@@H]2CCCN2C(=O)[C@H](CCc2ccc(C(F)(F)F)c(Cl)c2)NC(=O)CN(C)C(=O)[C@H](CC2CCCCC2)N(C)C(=O)CN(C)C(=O)CN(C)C1=O [Compound 1692] ([NMeL][Ahp(2)][Sar][Sar][NMeCha][Sar][hPhe(3-Cl-4-CF3)]P[Ac5c][NMeChg][NMeD]-Piperidide; lactam N-11) is ___
Given back: 3.5 nM

---

Molecular target: Kras and SOS1 (biotin-tagged human Kras loaded with GDP, His-tagged human SOS1) (Homo sapiens, UniProt P01116, G12D)
Construct: made in house; host or cells: E. coli (stated for Kras only)
Test: Protein-protein interaction inhibition between Kras and SOS1 (KrasGl2D-SOS PPI) using AlphaScreen
Type: binding
Conditions: AlphaScreen; biotin-tagged human Kras loaded with GDP, His-tagged human SOS1; read-out: KRAS G12D-SOS PPI IC50
Positions of bridges follow the written chain, without caps; N, C: chain ends. Non-standard residues stand in square brackets, D forms with d. Residues, ends and D or L forms follow the SMILES beside them. *: point of attachment. hPhe(3-Cl-4-CF3) = N[C@@H](CCc1ccc(C(F)(F)F)c(Cl)c1)C(=O)O; NMePhe(4-Cl) = CN[C@@H](Cc1ccc(Cl)cc1)C(=O)O; NMePhe(4-Me) = CN[C@@H](Cc1ccc(C)cc1)C(=O)O; NMeGly(cPent) = CN[C@H](C(=O)O)C1CCCC1; NMeCha = CN[C@@H](CC1CCCCC1)C(=O)O; NMeChg = CN[C@H](C(=O)O)C1CCCCC1; NMeD = CN[C@@H](CC(=O)O)C(=O)O; NMeL = CN[C@@H](CC(C)C)C(=O)O; NMeV = CN[C@H](C(=O)O)C(C)C; d(β3hA) = C[C@@H](N)CC(=O)O; Pip = O=C(O)[C@@H]1CCCCN1; Ac6c = NC1(C(=O)O)CCCCC1; NMeA = CN[C@@H](C)C(=O)O; NMeAib = CNC(C)(C)C(=O)O; Nle = CCCC[C@H](N)C(=O)O; Piperidide = C1CCN(*)CC1; dNMeA = CN[C@H](C)C(=O)O; Ac5c = NC1(C(=O)O)CCCC1; Aze = O=C(O)[C@@H]1CCN1; Sar = CNCC(=O)O
MEASURE_NAME: pIC50
Numbers only, as −log10 of the molar value.

Asked: Fill in: pIC50 of CC[C@H](C)[C@@H]1NC(=O)[C@H](CC(C)C)N(C)C(=O)C[C@@H](C)NC(=O)[C@H](C2CCCCC2)N(C)C(=O)C2(CCCC2)NC(=O)[C@@H]2CCCN2C(=O)[C@H](CCc2ccc(C(F)(F)F)c(Cl)c2)NC(=O)CN(C)C(=O)[C@H](Cc2ccc(C)cc2)N(C)C(=O)CN(C)C(=O)CN(C)C1=O [Compound 1856] (cyclo([Ac5c][NMeChg][d(β3hA)][NMeL]I[Sar][Sar][NMePhe(4-Me)][Sar][hPhe(3-Cl-4-CF3)]P)) is ___
Given back: 8.27

I need pIC50 for every entry listed below, if you could help.
1. CC[C@H](C)[C@@H]1NC(=O)[C@H](CC(C)C)N(C)C(=O)C[C@@H](C(=O)N2CCCCC2)N(C)C(=O)[C@H](C(C)C)N(C)C(=O)C2(CCCCC2)NC(=O)[C@@H]2CCCN2C(=O)[C@H](CCc2ccc(C(F)(F)F)c(Cl)c2)NC(=O)CN(C)C(=O)[C@H](CC2CCCCC2)N(C)C(=O)CN(C)C(=O)CN(C)C1=O [Compound 600] ([NMeL]I[Sar][Sar][NMeCha][Sar][hPhe(3-Cl-4-CF3)]P[Ac6c][NMeV][NMeD]-Piperidide; lactam N-11)
2. CCCC[C@@H]1NC(=O)[C@H](CCc2ccc(C(F)(F)F)c(Cl)c2)NC(=O)CN(C)C(=O)[C@H](Cc2ccc(Cl)cc2)N(C)C(=O)[C@@H]2CCN2C(=O)CN(C)C(=O)[C@H]([C@@H](C)CC)NC(=O)[C@@H]2CCCCN2C(=O)C[C@@H](C(=O)N2CCCCC2)N(C)C(=O)[C@H](CC(C)C)NC(=O)C(C)(C)N(C)C1=O [Compound 352] ([Pip]I[Sar][Aze][NMePhe(4-Cl)][Sar][hPhe(3-Cl-4-CF3)][Nle][NMeAib]L[NMeD]-Piperidide; lactam N-11)
3. CC[C@H](C)[C@@H]1NC(=O)[C@H](C)N(C)C(=O)C[C@@H](C)NC(=O)[C@H](C2CCCC2)N(C)C(=O)C2(CCCC2)NC(=O)[C@@H]2CCCN2C(=O)[C@H](CCc2ccc(C(F)(F)F)c(Cl)c2)NC(=O)[C@@H](C)N(C)C(=O)[C@H](CC(C)C)N(C)C(=O)CN(C)C(=O)CN(C)C1=O [Compound 621] (cyclo([Ac5c][NMeGly(cPent)][d(β3hA)][NMeA]I[Sar][Sar][NMeL][dNMeA][hPhe(3-Cl-4-CF3)]P))
4. CC[C@H](C)[C@@H]1NC(=O)[C@H](C)N(C)C(=O)C[C@@H](C(=O)N2CCCCC2)N(C)C(=O)[C@H](C(C)C)N(C)C(=O)C2(CCCC2)NC(=O)[C@@H]2CCCN2C(=O)[C@H](CCc2ccc(C(F)(F)F)c(Cl)c2)NC(=O)[C@H]2CCCN2C(=O)[C@H](CC2CCCCC2)N(C)C(=O)[C@@H]2CCN2C(=O)[C@H](C)N(C)C1=O [Compound 293] ([NMeA]I[NMeA][Aze][NMeCha][dP][hPhe(3-Cl-4-CF3)]P[Ac5c][NMeV][NMeD]-Piperidide; lactam N-11)

Given back:
[8.35, 8.26, 7.23, 6.92]
